Test Target: BRPF1B (Homo sapiens, UniProt P55201)
Sequence (P55201 628-732 limits assumed): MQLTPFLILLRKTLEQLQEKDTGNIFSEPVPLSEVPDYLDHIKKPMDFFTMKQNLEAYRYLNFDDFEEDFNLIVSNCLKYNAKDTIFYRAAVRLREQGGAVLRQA
Assay Comment: BROMOscan bromodomain competitive binding assay (DiscoveRx), BRPF1B
Condition Details: BROMOscan platform, n = 2 unless cell says n = 4
pKd: −log10 of the molar value.
Param threshold (7) applies to pKd; output criterion met when value >= threshold, criterion not met when value < threshold.

# input Exam item: decide whether the reported pKd for COc1cc2c(cc1NS(=O)(=O)c1ccccc1)cc(C)c(=O)n2C [Compound 21] is at least 7.
# output criterion met

# input COc1cc2c(cc1NS(=O)(=O)c1ccc(C#N)cc1OC)cc(C)c(=O)n2C [Compound 27] ?
# output criterion met

# input Could you do the same for Cc1cc(=O)n(C)c2ccc(NS(=O)(=O)c3ccc(C#N)cc3)cc12 [Compound 30] , please?
# output criterion met

# input Cool, now Cn1c(=O)ccc2cc(NS(C)(=O)=O)ccc21 [Compound 51]
# output criterion not met

# input Input Cn1c(=O)ccc2cc(NS(=O)(=O)c3ccc(Cl)c(Cl)c3)ccc21 [Compound 9]
# output criterion met

# input Let us now turn to Cn1c(=O)ccc2cc(NS(=O)(=O)C3CC3)ccc21 [Compound 54]
# output criterion not met

# input One more compound: Cn1c(=O)ccc2cc(NS(=O)(=O)c3ccc(C#N)cc3)ccc21 [Compound 4]
# output criterion met

# input And for CN(c1ccc2c(ccc(=O)n2C)c1)S(=O)(=O)c1ccc(C#N)cc1 [Compound 34] ?
# output criterion not met

# input Here is the next compound: Cn1c(=O)ccc2cc(NS(=O)(=O)c3cccc(C#N)c3)ccc21 [Compound 3]
# output criterion met

# input Further, for CCOc1cc2c(ccc(=O)n2C)cc1NS(=O)(=O)c1ccc(C#N)cc1 [Compound 13] ?
# output criterion met

# input Query Cn1c(=O)ccc2cc(NS(=O)(=O)c3ccccc3C#N)ccc21 [Compound 2] next
# output criterion not met

# input How about COc1c(NS(=O)(=O)c2ccc(C#N)cc2)ccc2c1ccc(=O)n2C [Compound 16] ?
# output criterion met

# input # iterate: COc1cc2c(cc1NS(=O)(=O)c1ccc(C#N)cc1)c(C)cc(=O)n2C [Compound 33]
# output criterion met

# input Now consider COc1cc2c(cc1NS(=O)(=O)c1ccccc1OC(F)(F)F)cc(C)c(=O)n2C [Compound 67] .
# output criterion met

# input And then COc1cc2c(ccc(=O)n2C)cc1NS(=O)(=O)c1ccccc1 [Compound 10] , what is it?
# output criterion met

---

Would you mind telling me the reported Kd of each entry?
Test Target: BRPF1B (Homo sapiens, UniProt P55201)
Assay Comment: BROMOscan bromodomain competitive binding assay (DiscoveRx), BRPF1B
Condition Details: BROMOscan platform, n = 2 unless cell says n = 4
Use nM as the unit, but write only the number.

# input # Kd lookup, item Cn1c(=O)ccc2cc(S(=O)(=O)Nc3ccc(C#N)cc3)ccc21
# output 100

# input How about this compound: Cn1c(=O)ccc2cc(NS(=O)(=O)c3ccccc3)ccc21
# output 65

# input Entry COc1cc2c(cc1NS(=O)(=O)c1ccc(C#N)cc1)c(C)c(C)c(=O)n2C please
# output 140
